FYI, the data here is from paper PMC13494018.

# TESTED TARGET: PDL1, Q9NZQ7
# Sequence (Q9NZQ7 whole entry): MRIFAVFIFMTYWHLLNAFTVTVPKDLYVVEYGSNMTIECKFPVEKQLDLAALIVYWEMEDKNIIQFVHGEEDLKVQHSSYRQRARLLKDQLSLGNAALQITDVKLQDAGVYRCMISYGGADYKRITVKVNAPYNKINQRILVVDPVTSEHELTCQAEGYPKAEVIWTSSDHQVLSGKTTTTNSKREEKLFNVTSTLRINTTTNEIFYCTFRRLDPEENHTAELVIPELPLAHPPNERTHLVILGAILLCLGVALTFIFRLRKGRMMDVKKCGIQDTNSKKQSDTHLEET
The categories you may choose from are yes = active, no = inactive

Tell me the assay call for d8r1_design_ppi_1032_dldesign_0_cycle0_af2pred (protein) SEEEENKEKAEALEKAAKNTTAIGDEKAAKDAAGKEKGAKAYNGAAALYEAAAKVSSPERAKEFKAKAAEAKAKAAAAQAAAAA please. no

Here is the next binder: d8r1_design_ppi_416_dldesign_0_cycle0_af2pred (protein) SEEAARILAETLGTISAQTAAAKAAAAAGDVEAARAAAAAARAAAEEGAKRLEELGNKSGAEALRSIGAATAAHIKALAAKAAA yes

Next binder up: d8r1_design_ppi_516_dldesign_0_cycle1_af2pred (protein) AEEELRRQIEEQGERLEEAAEELRRLAEEARERDPAAGRALEAAAESLRGLVEIAKELDPGSAQGVIQVAERVAERARRLAEEYLAA no

Would you mind doing d8r1_design_ppi_888_dldesign_0_cycle1_af2pred (protein) ATEEEKEKLKKLVEELLKAGKEGTVEEAKKAAEKLVEAAKKASLEAVLAGIAEVAKAAAELAKVNPEAAEVAREAAIELAKIALEKAD as well? no

What do we get for d8r1_design_ppi_146_dldesign_0_cycle1_af2pred (protein) YAQKIREAAEKLKSPEKKATLNAFADIAAKLEAEAKKAAAKDPAEGAKKLTAAKNLAAGALKLAEAKKEEE ? no

Others:
Could you please tell me the result logged for d8r1_design_ppi_246_dldesign_0_cycle1_af2pred (protein) ADPEAAARARAAAAVAGATELLKANPANTPAFAAANAEALADSPAAPEAKAAMAKIAAEAEKAAAARKAAEEAAK in this assay? no

Entry to check: d8r1_design_ppi_1245_dldesign_0_cycle0_af2pred (protein) SVAEQRAELAAIVDRTLAAAAAEDPRAAGRAGAAELARLLARSSDEVKPAANAAIAAFNTLIRDPAAGAAALEAVRAELA no
